B1: HDV Ribozyme (parent)
chain: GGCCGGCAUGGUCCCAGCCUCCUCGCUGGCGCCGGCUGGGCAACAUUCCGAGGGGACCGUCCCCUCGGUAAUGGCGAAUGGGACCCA

# Variants of: B1
# TEST METHOD NOTES: self-cleavage, relative activity (ratio to wild type); higher = more cleavage; co-transcriptional
Form field: self-cleavage (one value per entry).
MEASURED PARAMETER: self-cleavage

1. G28C C86U	0
2. C14G U37A	0.0489
3. G39A A42U	0.272
4. G67C	0.976
5. G1C A43G	0
6. C19G U46C	0.13
7. U9C U27G	0.914
8. G67A G74C	0.132
9. C18A G25U	0.162
10. U20G C33U	0.0852
11. A16U C64A	0.743
12. U9G G80C	0.246
13. G5C G11C	0.196
14. A51U G67A	0.78
15. C14G C62G	0.0831
16. G39U C44G	0.113
17. U23A C75G	0.116
18. G17A G35U	0.0906
19. U27G G53A	0.923
20. C4G G73A	0.156
21. G34A A56G	0.104
22. C48U C58A	1.06
23. G2U U79A	0
24. G25U C64A	0.151
25. C15G G28C	0.107
26. G10A C18U	0.138
27. U79A A83U	0.256
28. C57U A87G	0.979
29. G38U A71U	0.222
30. C21G C57G	0.0437
31. C48G G68C	1.14
32. G2A G31C	0.0354
33. G35U A77G	0.305
34. G38A G73U	0.0978
35. C22U C49U	0.45
36. C15A C49U	0.656
37. G5A G17A	0.172
38. C30A U47C	0.314
39. G34U U79G	0.0978
40. C48G G59C	0.831
41. G1A U65G	0
42. A70G G80C	0.104
43. C36G G59U	0.199
44. G25U G55A	0.201
45. U23C C86A	0.857
46. G35U U46G	0.141
